assay: Half life in rat at 3 mg/kg, iv; assay type: ADME, organism-based; set-up: dose 3 mg/kg, route intravenous; details: in vivo
assay-readout: half-life (min)
Please give a number only; it is taken to be in min.

half-life in this record for `CCc1nc(-c2ccc(Cl)cc2Cl)c(CC)nc1NC(CC)CC` : 294

###

# Lookup of reported half-life keyed by entry
experiment: Half life in rat microsomes; type: ADME, Microsome
Give a bare numeral; the unit min is implied.

Reference set, count: 8
Memo: `CCc1nc(-c2ccc(Cl)cc2Cl)c(CC)nc1NC(CC)CC` , reported half-life: 4.2

Summary for this molecule, `CCc1nc(-c2ccc(OC(F)F)cc2Cl)c(OC)nc1NC(CC)CC` : half-life is 17

half-life for `CCCCc1nc(-c2ccc(Cl)cc2Cl)c(CC)nc1NC(CC)CC` is 4.2

The recorded half-life for `CCC(CC)Nc1nc(C)c(-c2ccc(C(F)(F)F)cc2OC)nc1OC` is 120

Entry under test: `CCc1nc(-c2ccc(OC)cc2C(F)(F)F)c(CC)nc1NC(CC)CC` . Its half-life was 4.3

For this molecule ( CCc1nc(-c2ccc(Cl)cc2Cl)c(CC)nc1SC(C)CC (stereo unspecified) ), measured half-life is 4.1

`CCc1nc(-c2ccc(Cl)cc2Cl)c(C)nc1NC(CC)CC` yielded half-life of 4.2

response.value for `CCc1nc(-c2ccc(OC)cc2OC(F)(F)F)c(CC)nc1NC(CC)CC` (field: half-life) = 4.1

We next turn to a different molecule, shown below.
Please fill in: half-life reported for `CCc1nc(-c2ccc(Cl)cc2Cl)c(OC)nc1NC(CC)CC` = 11

Recorded values, source ChEMBL document CHEMBL1806459.
